Origin of the recorded values: patent US7135572B2

- Assay system: cyclooxygenase-1 (Homo sapiens, UniProt P23219)
- Construct: The cultured U-937 (humane lymphoma cell, obtained from Korean cell line bank) was centrifuged to collect the pellet; endogenous in cells; host or cells: U-937 (human lymphoma cell line, Korean cell line bank)
- Sequence (P23219 24-599): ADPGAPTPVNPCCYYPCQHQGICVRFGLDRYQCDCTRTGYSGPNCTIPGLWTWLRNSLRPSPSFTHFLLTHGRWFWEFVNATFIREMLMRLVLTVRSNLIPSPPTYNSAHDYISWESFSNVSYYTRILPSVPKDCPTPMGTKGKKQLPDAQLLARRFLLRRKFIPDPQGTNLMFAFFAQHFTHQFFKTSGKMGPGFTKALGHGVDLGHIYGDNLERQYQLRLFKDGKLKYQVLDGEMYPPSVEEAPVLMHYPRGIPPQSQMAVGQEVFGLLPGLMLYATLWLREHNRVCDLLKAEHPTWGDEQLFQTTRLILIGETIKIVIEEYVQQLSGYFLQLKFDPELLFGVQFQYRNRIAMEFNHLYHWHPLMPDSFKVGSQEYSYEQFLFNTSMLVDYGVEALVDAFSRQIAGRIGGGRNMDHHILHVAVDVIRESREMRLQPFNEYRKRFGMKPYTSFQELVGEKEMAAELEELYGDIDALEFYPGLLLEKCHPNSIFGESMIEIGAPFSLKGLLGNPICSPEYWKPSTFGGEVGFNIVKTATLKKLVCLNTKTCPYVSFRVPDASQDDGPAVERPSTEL
- Test details: Inhibition of cyclooxygenase-1 in U-937 cells (PGE2 quantitation)
- Type: cell-based
- Condition set: 3 μM; U-937 cells
Reported endpoint: Inhibitory effects of cyclooxygenase (COX): COX-1 (% inhibition)

Examples from the recorded data:
Molecule: Cc1nc(-c2ccc(F)cc2)n(-c2ccc(S(N)(=O)=O)cc2)n1 [Example 2]
Assay system: cyclooxygenase-1 (Homo sapiens, UniProt P23219)
Readout value: 36.9

Molecule: COc1cc(OC)cc(-c2nc(C)nn2-c2ccc(S(N)(=O)=O)cn2)c1 [Example 22]
Assay system: cyclooxygenase-1 (Homo sapiens, UniProt P23219)
Readout value: 15.1

Molecule: Cc1nc(-c2ccccc2)n(-c2ccc(S(N)(=O)=O)cn2)n1 [Example 14]
Assay system: cyclooxygenase-1 (Homo sapiens, UniProt P23219)
Readout value: 12.8

1. Cc1nc(-c2ccc(Cl)cc2)n(-c2ccc(S(N)(=O)=O)cn2)n1 [Example 16]
2. COc1cccc(-c2nc(C)nn2-c2ccc(S(N)(=O)=O)cc2)c1 [Example 10]
When 1 and 2 are compared, which has the higher number for Inhibitory effects of cyclooxygenase (COX): COX-1? To answer, give the label that identifies your chosen option.
2
(2: 38.8 % inhibition, 1: 24.5 % inhibition)
